Recorded kinase still bound, per cent of control by entry
- ASSAY SYSTEM: DYRK2 (human) (UniProt Q92630)
- Sequence (Q92630 whole entry, looked up): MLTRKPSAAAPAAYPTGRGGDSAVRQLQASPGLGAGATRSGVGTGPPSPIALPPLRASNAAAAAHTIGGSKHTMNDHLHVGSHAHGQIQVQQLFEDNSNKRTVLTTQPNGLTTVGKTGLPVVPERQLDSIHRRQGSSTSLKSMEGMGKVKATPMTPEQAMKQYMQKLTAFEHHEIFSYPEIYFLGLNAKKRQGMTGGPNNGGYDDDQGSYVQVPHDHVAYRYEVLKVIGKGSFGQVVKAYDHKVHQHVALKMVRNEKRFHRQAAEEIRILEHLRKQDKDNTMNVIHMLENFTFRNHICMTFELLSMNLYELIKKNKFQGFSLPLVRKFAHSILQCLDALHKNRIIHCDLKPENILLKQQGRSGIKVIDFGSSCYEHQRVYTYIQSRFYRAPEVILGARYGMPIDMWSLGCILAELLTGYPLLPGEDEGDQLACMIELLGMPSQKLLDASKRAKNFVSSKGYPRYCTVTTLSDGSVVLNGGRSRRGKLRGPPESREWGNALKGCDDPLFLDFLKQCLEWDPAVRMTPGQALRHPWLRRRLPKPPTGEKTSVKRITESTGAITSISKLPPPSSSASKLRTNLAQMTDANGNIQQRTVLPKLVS
- PROCEDURE TEXT: KINOMEscan competition binding
- STATED CONDITIONS: compound 10.0 µM

SMILES CODE	kinase still bound, per cent of control / %
CNC(=O)c1cc(Oc2ccc(NC(=O)Nc3ccc(Cl)c(C(F)(F)F)c3)cc2)ccn1	95
O=C1NC(=O)/C(=C/c2ccc3nccc(-c4ccncc4)c3c2)S1	5.4
C=CC(=O)Nc1cc(-n2c(=O)ccc3cnc4ccc(-c5cn[nH]c5)cc4c32)ccc1C	0.6
CCN(CC)CCCCNc1ncc2c(n1)N(C)C(=O)N(c1c(Cl)c(OC)cc(OC)c1Cl)C2	100

Measured values drawn from the kinase profiling compilation of Christmann-Franck et al. (2016) for this set.
